Source of measurements: patent US5087702A

Measurement Target: Angiotensin II (A II) receptor (Oryctolagus cuniculus, UniProt P34976)
Sequence (P34976 whole entry): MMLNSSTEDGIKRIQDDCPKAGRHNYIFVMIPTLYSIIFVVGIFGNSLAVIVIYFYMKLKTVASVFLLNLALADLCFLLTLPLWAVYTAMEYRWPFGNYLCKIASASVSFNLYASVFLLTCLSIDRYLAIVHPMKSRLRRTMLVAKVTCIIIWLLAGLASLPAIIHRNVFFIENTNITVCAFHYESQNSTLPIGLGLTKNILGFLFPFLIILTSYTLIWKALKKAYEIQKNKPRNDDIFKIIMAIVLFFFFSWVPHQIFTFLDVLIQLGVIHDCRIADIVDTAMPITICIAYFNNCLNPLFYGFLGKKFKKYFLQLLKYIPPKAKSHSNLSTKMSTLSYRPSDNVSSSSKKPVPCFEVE
pIC50: −log10 of the molar value.
Measured Metric: pIC50

Query :: // pIC50 lookup, key: CCCc1nc2c(C)ccnc2n1Cc1ccc(-c2ccccc2-c2nnnn2CC2=CC(O)C(O)C(O)C2=O)cc1 (stereo not shown) [Compound I]
Result :: > 4.30
